Tested on: PPARg DBDmut:RXRa IVT, anti-PPARg (DBD mutation: PPARg1 K132A/R137A, NR concentration 270 nM, RXRa partner concentration 90 nM)
Test: PBM binding z-score (relative to random genomic background probes); higher = stronger binding; sequences stand for … in GC…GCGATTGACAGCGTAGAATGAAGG
observable: PBM binding z-score
Give your answer as a number; write no unit.

Consider the reported PBM binding z-score for these sequences:
>>> print(df.to_string())
                           seq_string  value_observed
0  TGAATGAGGTTAAAGGTCAGGGAACGTGGCGTCG            1.94
1  CCTACTGGGCCAAGGTCATTGACCAGTCAAAGCA          -0.707
2  CAAACTAGGTCAAAGGTCAACGTCGAGCCAACCA            3.12
3  CCTGCTAGGTCATGGTCAGGTAATCTACAGTATG           0.801
4  CCTTACGGGTCACTCCATGTTATAGCATCGGAGT           0.606

## Input Recorded PBM binding z-score for CCTACTGGGCCACGAAAGGTGATTGATTCAGTGA , please?
## Output -0.117

* * *

Tested on: FXR:RXRa (NR concentration 270 nM, RXRa partner concentration 90 nM)
Assay: PBM binding z-score (relative to random genomic background probes); higher = stronger binding; sequences stand for … in GC…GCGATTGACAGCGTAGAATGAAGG
Each entry falls in a class defined on PBM binding z-score; the bands are interval 1 (below 2), interval 2 (2 to below 5), interval 3 (5 or more)

Please review the entries below; each comes with its answer.
>>> df
                           seq_string  label_value
0  CGTCGAAGGTCAATGCTAGGTCAGTGAAAGCATT   interval 3
1  CGAACTAGCTCACCAGGACAGTGAAGAGGTTGGA   interval 1

## Input Which class is correct for the following sequence? CGTCCAAGGTCAACAGGTCAGTGAAAGCGACGTG
## Output interval 3

## Input Which class is correct for the following sequence? CAAACTAGGTCAAAGGTCAAAGCCGAGCCAACCA
## Output interval 3

## Input Which class is correct for the following sequence? CCTACTGGGTCATTCAGAGGTCATTGATCATATG
## Output interval 3

* * *

Entries and their PBM binding z-score values follow.
Tested on: PPARg homodimer (NR concentration 180 nM)
Experiment: PBM binding z-score (relative to random genomic background probes); higher = stronger binding; sequences stand for … in GC…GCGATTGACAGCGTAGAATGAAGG
Give your answer as a number; write no unit.

                           seq_string           observable  value_observed
0  CGAACTAGGTCAGAACAGGACATTGAAGGATGAT  PBM binding z-score            1.27
1  TGAATGAGGTGAAAGATCAGGGAACGTGGCGTCG  PBM binding z-score           0.746
2  TCGAGTAGGTTACGGGGGCATTCTGGGATGAAGA  PBM binding z-score             1.3
3  AGTCAAAGTTCATCTAGGTATCGTAAGATATGCT  PBM binding z-score            2.49
4  ATCGAAAGGTCGACGAGGTGAGAATACACCGTTT  PBM binding z-score            2.15

Shifting focus to the sequence that follows.
## Input Recorded PBM binding z-score for ATATGTAGGTTAGGGTCATCCAGAAAGTAGGGAA , please?
## Output 6.33

* * *

Tested on: LXRa homodimer (NR concentration 270 nM)
Assay: PBM binding z-score (relative to random genomic background probes); higher = stronger binding; sequences stand for … in GC…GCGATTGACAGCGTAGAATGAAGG
Entries and their PBM binding z-score values follow.
Give your answer as a number; write no unit.

Consider the reported PBM binding z-score for these sequences:
                           seq_string  value_observed
0  CCTAGTTGGTCAGGGGGTCACACACCGGATATGA            1.32
1  CTATGTAGGTTAAGGGGTTCATTCAGTTTGAAAG            2.34
2  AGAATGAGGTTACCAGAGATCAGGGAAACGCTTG          -0.181
3  CAAACTAGGTCACGAAAGGGCAAAGTCGAATGAC            2.43
4  ATATGTAGGTTAGCGTCATTCAGAAAGTAGGGAA          -0.273
5  TCAGATAGGTAAAGGTGAAAGTCGAACGATATGA          -0.219
6  CCGAGTAGGTCACGAGGGGGCATTCAGTGCGAAT            1.59
7  TAGCCTAGGTCATTCAGGGGGCAGTATAGAAAGC            2.16

## Input Recorded PBM binding z-score for ATCGAAAGGGCGTGAGGTGAGTATACAGAAAGGC , please?
## Output -0.364

## Input Recorded PBM binding z-score for CCTACTGGGCGAAGGTCATTGATCAGTCAAAGCA , please?
## Output 0.677

## Input Recorded PBM binding z-score for CCGTACGGGTCAAGGTTATAGCACGGGTGGTACG , please?
## Output -0.221

## Input Recorded PBM binding z-score for CGTCCAAGGTCATAGGAGGTCATTGAAGACAGAT , please?
## Output 7.86

## Input Recorded PBM binding z-score for ACTAGTGGGTCAGCTGAGGTCACACACAATTCGG , please?
## Output 2.88

## Input Recorded PBM binding z-score for ATCGAAAGGTCGAAGGTGACTATACCCACCCGAA , please?
## Output 0.344

## Input Recorded PBM binding z-score for TTATCAAGGTGAAAGGTCGTTGATGCACGCCTTG , please?
## Output 0.476

## Input Recorded PBM binding z-score for CCTACTGGGCCAAAGGTCTTTGATTCCAATGCTC , please?
## Output -0.413

## Input Recorded PBM binding z-score for GCTCGGGGGACAAGGTCAGAGCTTTGTCCGTAGA , please?
## Output 0.143

## Input Recorded PBM binding z-score for CAAACTAGGTCAAGAGGTCAAACTCCGCTTCCCG , please?
## Output 6.8

## Input Recorded PBM binding z-score for CCGAGTAGGTTACGAGGGGGGATTCAGTGCGAAT , please?
## Output 0.79

## Input Recorded PBM binding z-score for ATCGAAAGGTCGACGAGGAGAGTATACACCGTTT , please?
## Output -0.0644

## Input Recorded PBM binding z-score for CCTAGTTGGTCAGGAGGTCACATACCGGATATGA , please?
## Output 1.66

## Input Recorded PBM binding z-score for ATACCAAGGTCATCGTGAGGTCGTTGATACTAAC , please?
## Output 4.44

## Input Recorded PBM binding z-score for CGTCCAAGGTCAATGCTAGGTCACTGAAAGCATT , please?
## Output 3.98

## Input Recorded PBM binding z-score for CGTCAAAGTTCAAGGTAATGTAACAGAAAGCAGC , please?
## Output 2.54

* * *

Tested on: PPARg:RXRa 270nM:90nM, anti-RXR (NR concentration 270 nM, RXRa partner concentration 90 nM)
Assay: PBM binding z-score (relative to random genomic background probes); higher = stronger binding; sequences stand for … in GC…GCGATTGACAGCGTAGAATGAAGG
Classification field: rule met = PBM binding z-score at or over 5; rule not met = PBM binding z-score under 5.

## Input Given the entry CCTACGGGGCCAAGGTCATTGATCAGTCAAAGCA , answer whether its PBM binding z-score meets or surpasses 5.
## Output rule not met

## Input Given the entry TCTTGTAGATCAAAGGTTAAGACAGCCGAAGCCT , answer whether its PBM binding z-score meets or surpasses 5.
## Output rule met

## Input Given the entry TCGAGTAGGTTACGGGGGAATTCAGGGATGAAGA , answer whether its PBM binding z-score meets or surpasses 5.
## Output rule not met

## Input Given the entry ATATGTAGGTTAGGGTCATACAGAAAGTAGGGAA , answer whether its PBM binding z-score meets or surpasses 5.
## Output rule met

## Input Given the entry AGACAAAGTTCAGGACGAGGTAACGTAAAGCACG , answer whether its PBM binding z-score meets or surpasses 5.
## Output rule not met

* * *

Test system: THRa:RXRa (NR concentration 90 nM, RXRa partner concentration 90 nM)
Assay: PBM binding z-score (relative to random genomic background probes); higher = stronger binding; sequences stand for … in GC…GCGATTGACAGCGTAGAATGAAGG
Entries and their PBM binding z-score values follow.
Give your answer as a number; write no unit.

Consider the reported PBM binding z-score for these sequences:
In [3]: df
Out[3]:
                           seq_string                               test_system           observable  value_observed
0  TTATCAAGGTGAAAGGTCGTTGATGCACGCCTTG  THRa:RXRa (NR concentration 90 nM, RXRa partner concentration 90 nM)  PBM binding z-score            3.44
1  CCTACAGGGCCAAGGTCATTGATCAGTCAAAGCA  THRa:RXRa (NR concentration 90 nM, RXRa partner concentration 90 nM)  PBM binding z-score            3.46
2  TCTCGGAGGACACGAAAAGTCAGAGCTCGACATC  THRa:RXRa (NR concentration 90 nM, RXRa partner concentration 90 nM)  PBM binding z-score            1.27
3  CATACAGGGTAAGCTAGGCCAGAGTAGGGACGGC  THRa:RXRa (NR concentration 90 nM, RXRa partner concentration 90 nM)  PBM binding z-score            1.49

## Input Recorded PBM binding z-score for CGAACTAGGTCAAAGGACAGTGTAAGGCGACGTA , please?
## Output 2.9

## Input Recorded PBM binding z-score for CTATGTAGGTTAAGGGGGTCGTTCAGTTTGAAAG , please?
## Output 2.7
